Sourced from patent US20260250737A1

- Test system: SmLux
- procedure.text: Computationally generated LgLux variants expressed in E. coli, tested in lysates with SmLux and substrate 1c
- Format: biochemical
- stated.conditions: Table 22, 50 uM substrate 1c
quantity: Baseline Signal (Normalized by expression)

Solved entries (count: 3):
molecule | measured.result
MBIO-5358: computationally generated LgLux, SEQ ID NO 2774 (protein) MSEEQIRQDLLRFYEALDSGDAITAASLFNPGVTITLWDGTTFTSVEEFREWFESQFSTSKDALREISSLEVRGDTVEVTVRLSFTRNGQKHTVDLLQQFKFI | 440.6
LgLux_4039: Large Lux fragment of MBIO-4039 (protein) MSEEQIRQNLRRFYEALDSGDAITAASLFDPGVTITLWDGTTFTSVEEFREWFESQFSTSKDALREISSLEVRGDTVEVTVRLSFTRNGQKHTVDLLQLFKFV | 1766.6
MBIO-5380: computationally generated LgLux, SEQ ID NO 2795 (protein) MTPEERIADVRAFYAALASGDLEAAKALFDPGVTITLWDGTTFTSVEEFRAWFEEQFKTSKDALREIESIEVDGDTVRVLVRLTFVRDGEEKVVDLLQLFKFV | 322.6

For each of the molecules below, note its Baseline Signal (Normalized by expression).
1. MBIO-5377: computationally generated LgLux, SEQ ID NO 2792 (protein) MTPEERIADVRAFYAALASGDLEAAKALFDPGVTITLWDGTTFTSVEEFRAWFEEQFKTSKDALREIESIEVDGDTVRVLVRLSFTRNGQKHTVDLLQQFKFI
2. MBIO-5369: computationally generated LgLux, SEQ ID NO 2784 (protein) MTPEEIRQNLLRFYEALDSGDAEAAKSLFNPGVTITLWDGTTFTSVEEFREWFEEQFKTSKDALREIESLEVDGDTVRVTVRLTFTRDGEEKVVDLLQLFKFV
3. MBIO-5361: computationally generated LgLux, SEQ ID NO 2776 (protein) MTPEELIANVLAFYAALASGDLVAAKALFNSGVTITLWDGATFTSIEKFRAWFDTQFKTSKDALREIESIEVDGDTVRVLVRLTFVSDGEEQVVDLLQLFKFV
4. MBIO-5364: computationally generated LgLux, SEQ ID NO 2779 (protein) MTPEERIANVRAFYAALASGDLEAAKALFDPGVTITLWDGTTFTSVEEFRAWFEEQFKTSKDALREIESIEVDGDTVRVLVRLSFTRNGQKHTVDLLQLFKFV

Given back:
1: 324.4; 2: 760; 3: 156.4; 4: 376.8
